target: HLA-A*30:01; experiment: IEDB peptide-MHC binding, purified MHC/competitive/radioactivity; filed as Kd, often an IC50 or EC50 that approximates it; bounds were set here for any values at or beyond the usual limits of such assays; details: source organism: Mammarenavirus brazilense
endpoint-name: Kd

ICLSGEGWPY 4.29 µM
SLTEEFYHSY ≥ 58.5 µM
GLNISGYNY ≥ 39.2 µM

====

target: HLA-A*01:01; test: IEDB peptide-MHC binding, purified MHC/competitive/radioactivity; filed as Kd, often an IC50 or EC50 that approximates it; bounds were set here for any values at or beyond the usual limits of such assays; settings: source organism: Mammarenavirus brazilense
endpoint-name: Kd (µM)

SLTEEFYHSY 0.129
GLNISGYNY 13.4
VTDVTLLMA 0.0087
